Test system: NCI-H1650
Experiment: Cytotoxicity against human NCI-H1650 cells measured after 72 hrs by MTT assay
Assay type: functional, cell-based
Settings: NCI-H1650, 72 h
ENDPOINT_LABEL: IC50 (µM)
One number for each entry, in µM.

Record excerpt, results attached:
COc1ccc(OC)c(/C=C2\COC/C(=C\c3ccccc3F)C2=O)c1
6.8
O=C1/C(=C/c2cccc(O)c2)COC/C1=C\c1ccccc1F
5.7
O=C1/C(=C/c2ccccc2F)CNC/C1=C\c1ccccc1F
14.6
O=C1/C(=C/c2ccccc2F)COC/C1=C\c1ccccc1Br
6.5
COc1ccc(/C=C2\COC/C(=C\c3ccccc3F)C2=O)cc1O
7.5

Okay, here is my list. What is IC50 for each of these?
1. COc1cc(/C=C2\COC/C(=C\c3ccccc3F)C2=O)cc(OC)c1OC
2. COc1cc(/C=C/C(=O)CC(=O)/C=C/c2ccc(O)c(OC)c2)ccc1O
3. Cc1ccc2nc(NCCN)c3ncc(C)n3c2c1
4. O=C1/C(=C/c2ccccc2)COC/C1=C\c1ccccc1F

6.8
20.7
19.9
9.6

Okay, here is my list. What is IC50 for each of these?
1. O=C1/C(=C/c2ccccc2F)COC/C1=C\c1ccccc1C(=O)O
2. COc1cc(/C=C2\COC/C(=C\c3ccccc3F)C2=O)ccc1O

[15.2, 18.5]

Checklist item: IC50 tested on NCI-H1650, entry O=C1/C(=C/c2ccccc2F)COC/C1=C\c1ccc(Cl)cc1Cl , value? 8.6
